Source of measurements: patent US7595401B2

- system name: purified human Hsp90
- assay protocol: Binding Assay: fluorescence polarization with BODIPY-labeled geldanamycin
- recorded conditions: BODIPY-GM 10 nM, Hsp90 30 nM
pIC50: −log10 of the molar value.
Parameter: pIC50. Scope: all listed entries.

Before answering, review these 2 worked examples.
1) COc1ccc(OC)c(Sc2nc3c(N)ncnc3n2CCc2ccc(N)cc2)c1 :: < 5.10
2) CCOC(=O)[C@@H]1C[C@H](CCn2c(Sc3cc4c(cc3Br)OCO4)nc3c(N)ncnc32)CCN1C(=O)OC(C)(C)C (relative stereo) :: < 5.52

Challenge: I am curious: what pIC50 value has been reported for "CN(C)c1ccc(CCn2c(Sc3cc4c(cc3Br)OCO4)nc3c(N)ncnc32)cc1" ?
Response given: < 5.60

* * *

- system name: purified human Hsp90
- assay protocol: Binding Assay: fluorescence polarization with BODIPY-labeled geldanamycin
- recorded conditions: BODIPY-GM 10 nM, Hsp90 30 nM
- Source text: Compound binding to purified Hsp90 was monitored using BODIPY-labeled geldanamycin (BODIPY-GM) in a fluorescence polarization assay adapted from Kim et al. (Journal of Biomolecular Screening 2004, 9(5):375-381). […] Parallel and perpendicular fluorescence measurements were read (LJL BioSystems Analyst AD plate reader) with excitation/emission wavelengths of 485/530 nm. […]
pIC50: −log10 of the molar value.
parameter measured: pIC50

1) N#Cc1cc2c(cc1Sc1nc3c(N)ncnc3n1CCc1ccccc1Cl)OCO2 [Example 326] :: 7.46
2) N#Cc1cc2c(cc1Sc1nc3c(N)ncnc3n1CCc1ccccc1)OCO2 [Example 320] :: 6.62
3) COc1ccc(OC)c(Sc2nc3c(N)ncnc3n2CCc2ccccc2)c1 [Example 1] :: 6.47
4) Nc1ncnc2c1nc(Sc1cc3c(cc1Br)OCO3)n2CCC1CCNC1 (stereo not drawn) [Example 476] :: 7.05

a = CC(C)[C@@H]1C[C@H](CCn2c(Sc3cc4c(cc3Br)OCO4)nc3c(N)ncnc32)CCN1C(=O)OC(C)(C)C (relative stereo) [Example 429]
b = CC(C)(C)OC(=O)N[C@H]1CC[C@@H](CCn2cnc(N)c3nc(Sc4cc5c(cc4Br)OCO5)nc2-3)CC1 [Example 399]
Challenge: Lab note: check whether a or b has the lower measured pIC50. # answer = label of selected item
Response given: a

* * *

- system name: purified human Hsp90
- assay protocol: Binding Assay: fluorescence polarization with BODIPY-labeled geldanamycin
- recorded conditions: BODIPY-GM 10 nM, Hsp90 30 nM
pIC50: −log10 of the molar value.
Each item that follows carries a reported pIC50.

Example compounds with recorded pIC50:
1. CC(C)(C)OC(=O)NC(CCn1c(Sc2cc3c(cc2Br)OCO3)nc2c(N)ncnc21)C1CC1 (centres unmarked) :: 6.52
2. CC(C)(C)OC(=O)N1CCCC(CCCn2c(Sc3cc4c(cc3Br)OCO4)nc3c(N)ncnc32)C1 (centres unmarked) :: < 4.60
3. Nc1ncn(CCc2ccc(F)cc2)c2nc(Sc3ccc4c(c3)OCO4)nc1-2 :: < 5.00
4. Nc1ncnc2c1nc(Sc1cc3c(cc1Br)OCO3)n2CC(c1ccccc1)C1CCCC1 (centres unmarked) :: < 5.52

Here is another compound to look at.
Challenge: // returns reported pIC50 for input "COc1ccc(OC)c(Sc2nc3c(N)ncnc3n2CCc2cc(OC)c(OC)c(OC)c2)c1"
Response given: < 5.00
